For each entry below, report its TGI value.
system: A549 NSCLC; test: NCI tumour cell line growth inhibition, 48 h

N#Cc1c2c(c(-c3cccs3)n(C3OC(CO)C(O)C(O)C3O)c1=S)CCc1ccccc1-2 (stereo unspecified)    > 100 µM
CCOC(=O)/C(C#N)=C/Nc1ccc(-c2nc3ccccc3[nH]2)cc1    > 100 µM
O=C(Nc1cccc(C(F)(F)F)c1)c1cc(Br)cc(Br)c1O    9.56 µM

For each of the items listed, what is its TGI?
1. c1ccc(C2[C@@H]3CCCc4ccccc4C3=NN2c2ccccc2)cc1 (stereo partly specified)
2. O=C(/C(=C/c1ccccc1)c1ccccc1)N1c2ccccc2CC1c1c[nH]c2ccccc12 (stereo unspecified)
3. Oc1c(CN2CCOCC2)cc(COCc2ccccc2)c2cccnc12
4. O=C1c2cc([N+](=O)[O-])sc2C(=O)c2ccsc21
5. OC(CN1CCCCC1)c1ccc(/C=C/c2ccc(Cl)cc2)cc1 (stereo unspecified)
6. COc1cccc(C2=C(c3cn(C)c4cccc(OC)c34)C(=O)NC2=O)c1
7. CCN(CC)CCC(=O)c1ccc(Oc2ccc(F)cc2)cc1
8. COc1ccc(C2=NOP(c3ccccc3)(c3ccccc3)(c3ccccc3)C2)cc1

1: > 100 µM; 2: > 100 µM; 3: 64 µM; 4: 3.51 µM; 5: > 100 µM; 6: > 25 µM; 7: > 100 µM; 8: > 76.1 µM

// for each compound below, give its TGI
1. C#CCCCC(=O)N(C(=O)CS(=O)CC)c1ccccc1 (stereo unspecified)
2. CCOC(=O)c1ccccc1-c1c2ccc(=[N+](C)C)cc-2oc2cc(N(C)C)ccc12
3. CC1=C(C(=O)Nc2ccccc2)C(c2ccc(C(C)C)cc2)C(C(=O)Nc2ccccc2)=C(C)N1
4. COc1cc([C@@H]2c3cc4c(cc3C(OC3O[C@@H]5COC(C)O[C@H]5[C@H](O)[C@H]3O)C3COC(=O)[C@@H]32)OCO4)cc(OC)c1O (stereo partly specified)

1: > 100 µM; 2: > 38.7 µM; 3: > 100 µM; 4: > 39.1 µM

Go through the items and report each one's TGI.
1. COc1ccccc1NS(=O)(=O)c1ccc2ncn(NS(=O)(=O)c3ccc(Cl)cc3)c(=O)c2c1
2. Cc1cc(O)c(C(c2ccncc2)c2c(O)cc(C)[nH]c2=O)c(=O)[nH]1

> 100 µM
> 100 µM

Give TGI for each listed item.
1. O=[N+]([O-])c1cc(F)c2cccnc2c1O
2. Cc1nc2c(=O)[nH]c3ccc(Cl)cc3c2o1
3. Nc1c(-c2nc3ccccc3[nH]2)sc(=S)n1-c1ccc(Cl)cc1
4. C[n+]1c(N)n(C(=O)OCc2ccccc2)c(=O)c2c1ncn2C(=O)OCc1ccccc1

1: > 100 µM; 2: > 100 µM; 3: 51.1 µM; 4: > 100 µM

* * *

system: SK-MEL-2 melanoma; assay: NCI tumour cell line growth inhibition, 48 h; in the data active = GI50 below about 0.43 µM; inactive = the rest
Hello, when you answer, please use one of the following outcomes: active, inactive

Reference set (3 entries):
CC1(C)[C@@H](OC(N)=O)C=C[C@]2(C=O)[C@H]3CC[C@]4(C)[C@@H](c5ccc(=O)oc5)[C@@H](Cl)C[C@]4(O)C3=CC[C@@H]12    active
CO[C@H](C(=O)O)[C@@H]1Cc2cc3cc(OC4CC(OC5CC(O)C(O)C(C)O5)C(O)C(C)O4)c(C)c(O)c3c(O)c2C(=O)[C@H]1OC1CC(OC2CC(OC3CC(C)(O)C(O)C(C)O3)C(O)C(C)O2)C(O)C(C)O1 (some centres not stated)    active
COC(=O)[C@]12CC[C@@H](C)[C@H](C)[C@@H]1C1=CC[C@@H]3[C@@]4(C)CC(=O)[C@H](OC(=O)c5ccco5)[C@@]5(C)COC(=C45)C[C@@]3(C)[C@]1(C)CC2    inactive

# outcome recorded in this test, key = `CCOC(=O)/C(C#N)=C/Nc1ccc(-c2nc3ccccc3[nH]2)cc1`
inactive

Please let me know the test result on file for `O=C(CCl)Nc1cc(O)c2c(c1)C(=O)c1cccc(O)c1C2=O` .
inactive

Please indicate how the test categorized OC(COc1cccc2ccccc12)CN1CCN(c2ccccc2Cl)CC1 (configuration not stated) .
inactive

Please state the recorded outcome for this compound: `O=C(CC(=O)c1ccccc1)c1ccccc1`
inactive

* * *

Exercise: for every item that follows, state its recorded TGI.
system: SK-OV-3 ovarian; assay: NCI tumour cell line growth inhibition, 48 h
Answers are plain numbers, in µM.

Examples from the recorded data:
CCCCCCNC(=O)Oc1ccc(/C(=C(\C)c2ccccc2)c2ccc(OCCN(CC)CC)cc2)cc1    15.2
OC(COc1cccc2ccccc12)CN1CCN(c2ccccc2Cl)CC1 (centres undefined)    37.8
NCCCC[C@H](N)C(=O)Nc1ccc(-c2nc3ccccc3s2)cc1Cl    31.1

Input C=CC(Br)(CBr)CCC(Br)C(C)C (centres undefined) , output reported TGI.
30.2

* * *

Give TGI for every item shown.
test system: PC-3 prostate; experiment: NCI tumour cell line growth inhibition, 48 h

See these solved cases before continuing.
O=C(NN=C1CCCCC1)NN=C1CCCCC1    > 100 µM
CC1(C)C2CCC(N)(C2)C1O (stereo unspecified)    > 100 µM
CCCCNC(=S)Nc1nc(C(=O)NNC(=O)c2ccccc2)cs1    39.7 µM
CC(=O)O[C@H]1CC[C@H]2[C@@H]3CCC(C(C)=O)[C@H](C(=O)O)[C@H]3CC[C@]12C (stereo partly specified)    > 100 µM
O=C(Nc1ccc(I)cc1F)c1cc(I)ccc1O    9.76 µM
C#CCCCC(=O)N(C(=O)CS(=O)CC)c1ccccc1 (stereo unspecified)    > 100 µM
OC(c1ccccc1)(c1cccnc1)C(O)(c1ccccc1)c1cccnc1 (stereo unspecified)    > 100 µM
CCCC1(N)CC(OC)OC(C)C1O (stereo unspecified)    > 100 µM

Look at each molecule and report its TGI.
1. O=c1c2c3c(sc2n2c(-c4ccc(Br)cc4)nnc2n1Cc1ccccc1)CCCC3
2. CCOC(=O)/C(C#N)=C/Nc1ccc(-c2nc3ccccc3[nH]2)cc1
3. COc1cc(C=O)cc(C=Nc2ccc(S(N)(=O)=O)cc2)c1O

1: 16.6 µM; 2: > 100 µM; 3: 21.3 µM

* * *

Assign TGI to each entry below.
test system: OVCAR-5 ovarian; experiment: NCI tumour cell line growth inhibition, 48 h
One number for each entry, in µM.

COc1cc2c(cc1OCCCCCOc1cc3c(cc1OC)C(=O)N1CCC[C@H]1CN3)N=C[C@@H]1CCCN1C2=O    69.4

Look up and state reported TGI for `CC1=C(C(=O)Nc2ccccc2)C(c2ccc(C(C)C)cc2)C(C(=O)Nc2ccccc2)=C(C)N1`
38.5

* * *

system: RXF 393 renal; test: NCI tumour cell line growth inhibition, 48 h; in the data active = GI50 below about 0.43 µM; inactive = the rest
The reply should be one of these categories: 1 (active), 0 (inactive)

So what was the verdict on `COc1ccc(/C=N/N=C(\[O-])c2ccncc2)cc1F.COc1ccc(/C=N\N=C(/[O-])c2ccncc2)cc1F.[Cu+2]` in this test?
0

Please indicate how the test categorized `O=S(=O)(O)ONC1=NCCN1` .
0

Which result was noted for this molecule in the test: `COc1ccc2[nH]c(O)c(/C=c3/cc4c(c(-c5ccc(F)cc5)n3)=Nc3ccccc3-4)c2c1`
0

Assay result, entry `COc1ccc(NC(=O)/C=C(C)/C=C/C=C(C)\C=C\C2=C(C)CCCC2(C)C)cc1` — outcome?
0

Kindly provide the recorded test outcome for the following molecule: `O=C(Nc1ccc(I)cc1F)c1cc(I)ccc1O`
0

Look up the recorded call for O=[As]c1ccc(C(=O)c2ccc(Oc3ccccc3)cc2)cc1 (configuration not stated) in this test.
1

GET /call?item= `O=C(Nc1cc(-c2cccnc2)nc(NCCCN2CCOCC2)n1)c1cc(Br)cc(C(F)(F)F)c1` returns the recorded outcome of this test.
0

Just curious, what result did `c1ccc2nc(OCCN3CC3)ccc2c1` get here?
0

* * *

system: MDA-MB-435; test: NCI tumour cell line growth inhibition, 48 h
measurement.label: GI50

Below, 4 compounds whose answers are already recorded.
COc1cc2c(cc1OC)-c1ncc3cc4c(cc3c1C2)OCO4    63.4 µM
CC(=O)N1CCN(CCOc2ccc(C3CCN(C4=Nn5c(nnc5C(F)(F)F)CC4)CC3)cc2)CC1    10.2 µM
COc1cc([C@@H]2c3cc4c(cc3C(OC3O[C@@H]5COC(C)O[C@H]5[C@H](O)[C@H]3O)C3COC(=O)[C@@H]32)OCO4)cc(OC)c1O (stereo not given in full)    3.89 µM
O=C(Nc1ccc(I)cc1F)c1cc(I)ccc1O    0.723 µM

For the compound `Cc1c(C(=O)O[C@H]2[C@@H]3[C@H](C)CC[C@H]3[C@]3(C)O[C@@]2(C2CCCCC2)C[C@H]3OC(=O)CO)ccc2ccccc12` , give its reported GI50.
8.15 µM
